# reported IC50; entries follow
Molecular target: Histamine H1 receptor (Cavia porcellus, UniProt P31389)
Sequence (P31389 whole entry): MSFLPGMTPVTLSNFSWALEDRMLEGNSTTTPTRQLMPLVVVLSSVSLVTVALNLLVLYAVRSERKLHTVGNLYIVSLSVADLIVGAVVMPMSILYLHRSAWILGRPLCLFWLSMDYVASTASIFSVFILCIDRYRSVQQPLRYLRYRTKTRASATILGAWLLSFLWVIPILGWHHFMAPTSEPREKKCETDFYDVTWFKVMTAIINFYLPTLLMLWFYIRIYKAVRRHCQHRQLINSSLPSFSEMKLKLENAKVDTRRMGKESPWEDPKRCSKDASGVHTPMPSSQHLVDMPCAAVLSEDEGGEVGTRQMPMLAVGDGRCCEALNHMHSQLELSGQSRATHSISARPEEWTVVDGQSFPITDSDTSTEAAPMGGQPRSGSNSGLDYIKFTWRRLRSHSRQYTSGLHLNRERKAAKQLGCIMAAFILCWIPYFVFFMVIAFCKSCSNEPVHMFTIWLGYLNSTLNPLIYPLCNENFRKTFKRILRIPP
Test: In vitro for histamine H1 receptor antagonist activity against histamine-induced contractions on isolated guinea pig ileum
Type: functional, tissue-based
measured metric: IC50

molecule="CN(C)CCCN1C(=O)CSC1c1ccc(Br)cc1 (stereo not given)" result="2.3 µM"
molecule="CN(C)CCN1C(=O)CSC1c1ccccc1 (stereo not given)" result="> 100 µM"
molecule="COc1ccc(C2SCC(=O)N2CCCN(C)C)cc1 (stereo not given)" result="> 100 µM"
molecule="CN(C)CCCN1C(=O)CSC1c1cccc([N+](=O)[O-])c1 (stereo not given)" result="> 100 µM"
molecule="CN(C)CCCN1C(=O)CSC1c1ccc([N+](=O)[O-])cc1 (stereo not given)" result="> 100 µM"
